Tested on: SF-295 (human glioblastoma)
test_protocol: In vitro antiproliferative MTT assay, SF-295
Assay type: cell-based
measurement_context: IC50 for human lymphocytes/IC50 for cancer cell line
Procedure: The antiproliferative activity of compounds 5a–r was determined based on an MTT assay and using CA-4 as standard against the tumor cell lines: HL-60 (human leukemia), SF-295 (human glioblastoma), MDA-MB435 (melanoma), PC3M (prostate cancer), OVCAR-8 (ovaries adenocarcinoma), NCI-H258M (pulmonary bronchio-alveolar carcinoma) and HCT-8 (adenocarcinoma ileocecal) (Table 2). […]
Measured SI Lymphocyte/ SF-295 values are reported for all entries that follow.
A bare number is all that is needed in reply.

// below: answered compounds
INSERT INTO results (compound, outcome_measure, assay_result) VALUES
  ('COc1ccc(/C=C\c2cc(OC)c(OC)c(OC)c2)cc1O [CA-4, Combretastatin A4]', 'SI Lymphocyte/ SF-295', 0.44),
  ('COc1cc(C(=O)N/N=C/c2ccc(F)cc2)cc(OC)c1OC [Compound 5p]', 'SI Lymphocyte/ SF-295', 1.46),
  ('COc1ccc(/C=N/NC(=O)c2cc(OC)c(OC)c(OC)c2)cc1OC [Compound 5g]', 'SI Lymphocyte/ SF-295', 0.99),
  ('COc1cc(C(=O)N/N=C/c2cc(C(C)(C)C)c(O)c(C(C)(C)C)c2)cc(OC)c1OC [Compound 5k]', 'SI Lymphocyte/ SF-295', 1),
  ('COc1cc(C(=O)N/N=C/c2ccc(C)cc2)cc(OC)c1OC [Compound 5o]', 'SI Lymphocyte/ SF-295', 0.08),
  ('COc1cc(C(=O)N/N=C/c2ccc(Br)cc2)cc(OC)c1OC [Compound 5r]', 'SI Lymphocyte/ SF-295', 0.49),
  ('COc1cc(C(=O)N/N=C/c2cccc(O)c2)cc(OC)c1OC [Compound 5c]', 'SI Lymphocyte/ SF-295', 0.32),
  ('COc1cc(C(=O)N/N=C/c2ccc(Cl)cc2)cc(OC)c1OC [Compound 5q]', 'SI Lymphocyte/ SF-295', 0.85);

Memo: COc1cc(C(=O)N/N=C/c2ccc3c(c2)OCO3)cc(OC)c1OC [Compound 5h] , reported SI Lymphocyte/ SF-295: 1.47

The compound COc1cc(C(=O)N/N=C/c2ccc(-c3ccccc3)cc2)cc(OC)c1OC [Compound 5n] showed SI Lymphocyte/ SF-295 equal to 1.0

Form field SI Lymphocyte/ SF-295, entry COc1cc(C(=O)N/N=C/c2coc3ccccc3c2=O)cc(OC)c1OC [Compound 5j] : 1

// field: SI Lymphocyte/ SF-295; key: COc1cc(/C=N/NC(=O)c2cc(OC)c(OC)c(OC)c2)cc(OC)c1OC [Compound 5i] ; value = 1

Recorded result, COc1cc(C(=O)N/N=C/c2ccccc2)cc(OC)c1OC [Compound 5b] , SI Lymphocyte/ SF-295: 4.88

The compound COc1cc(C(=O)N/N=C/c2ccc(O)cc2)cc(OC)c1OC [Compound 5d] showed SI Lymphocyte/ SF-295 equal to 0.82

* * *

test_protocol: Aqueous solubility assay by ultraviolet spectroscopy
Format: physicochemical
measurement_context: water (saturated aqueous solution), thermodynamic from solid, 2 hours at 37°C, read-out: Aq. Solubility
Please mark yes if the recorded solubility at 2 h is equal to or greater than 6 µg/mL, and no if it falls below.

A selection of reference data follows.
INSERT INTO assay_data (chemical_structure, discrete_label) VALUES
  ('COc1cc(C(=O)N/N=C/c2coc3ccccc3c2=O)cc(OC)c1OC', 'no'),
  ('COc1cc(C(=O)N/N=C/c2ccc(O)cc2)cc(OC)c1OC', 'yes'),
  ('COc1cc(C(=O)N/N=C/c2cccc(O)c2)cc(OC)c1OC', 'no'),
  ('COc1cc(C(=O)N/N=C/c2ccc(F)cc2)cc(OC)c1OC', 'yes'),
  ('COc1cc(C(=O)N/N=C/c2ccc(-c3ccccc3)cc2)cc(OC)c1OC', 'no'),
  ('COc1cc(C(=O)N/N=C/c2ccccc2)cc(OC)c1OC', 'yes'),
  ('COc1cc(C(=O)N/N=C/c2ccc(O)c(O)c2)cc(OC)c1OC', 'no'),
  ('COc1ccc(/C=N/NC(=O)c2cc(OC)c(OC)c(OC)c2)cc1OC', 'no');

Consider the additional molecule presented here.
Confirm if solubility at 2 h reported for the molecule COc1cc(C(=O)N/N=C/c2ccc(C)cc2)cc(OC)c1OC is 6 µg/mL or above.
yes

* * *

Each item that follows carries a reported solubility at 2 h.
test_protocol: Aqueous solubility assay by ultraviolet spectroscopy
Assay type: physicochemical
measurement_context: water (saturated aqueous solution), thermodynamic from solid, 2 hours at 37°C, read-out: Aq. Solubility
Please reply with the bare figure in µg/mL and do not write the unit itself.

The compound listed as COc1ccc(/C=C\c2cc(OC)c(OC)c(OC)c2)cc1O shows solubility at 2 h equal to 5.44

The compound identified as COc1cc(/C=N/NC(=O)c2cc(OC)c(OC)c(OC)c2)cc(OC)c1OC registered its solubility at 2 h at 0.0894

The measured solubility at 2 h associated with COc1cc(C(=O)N/N=C/c2ccc(Br)cc2)cc(OC)c1OC reads 0.262

* * *

System: MDA-MB435 (melanoma)
test_protocol: In vitro antiproliferative MTT assay, MDA-MB435
Format: cell-based
measurement_context: IC50 for human lymphocytes/IC50 for cancer cell line
outcome_measure: SI Lymphocyte/ MDA-MB345
API doc: respond with a numeric literal and nothing else, no unit.

INSERT INTO measurements (chemical_structure, assay_result) VALUES
  ('COc1cc(C(=O)N/N=C/c2ccc(O)cc2)cc(OC)c1OC', 16.06),
  ('COc1ccc(/C=N/NC(=O)c2cc(OC)c(OC)c(OC)c2)cc1OC', 8.41),
  ('COc1cc(C(=O)N/N=C/c2ccc(C)cc2)cc(OC)c1OC', 0.21),
  ('COc1cc(C(=O)N/N=C/c2coc3ccccc3c2=O)cc(OC)c1OC', 1),
  ('COc1cc(C(=O)N/N=C/c2cc(C(C)(C)C)c(O)c(C(C)(C)C)c2)cc(OC)c1OC', 1);

// below: SI Lymphocyte/ MDA-MB345 requested for another compound
// SI Lymphocyte/ MDA-MB345 (MDA-MB435 (melanoma)) for COc1cc(C(=O)N/N=C/c2ccc(O)c(O)c2)cc(OC)c1OC = 0.06

* * *

Some compounds, each annotated with its measured SI Lymphocyte/ PC3M.
Test system: PC3M (prostate cancer)
test_protocol: In vitro antiproliferative MTT assay, PC3M
Assay type: cell-based
measurement_context: IC50 for human lymphocytes/IC50 for cancer cell line

Consider the reported SI Lymphocyte/ PC3M for these compounds:
INSERT INTO assay_data (chemical_structure, experimental_system, assay_result) VALUES
  ('COc1cc(C(=O)N/N=C/c2ccc3c(c2)OCO3)cc(OC)c1OC', 'PC3M (prostate cancer)', '1.14±0.06'),
  ('COc1cc(C(=O)N/N=C/c2ccc(F)cc2)cc(OC)c1OC', 'PC3M (prostate cancer)', '0.89±0.01'),
  ('COc1cc(C(=O)N/N=C/c2cc(C(C)(C)C)c(O)c(C(C)(C)C)c2)cc(OC)c1OC', 'PC3M (prostate cancer)', 1),
  ('COc1cc(C(=O)N/N=C/c2ccc(Br)cc2)cc(OC)c1OC', 'PC3M (prostate cancer)', '2.29±0.20');

Turning to the following compound.
Measured SI Lymphocyte/ PC3M of COc1ccc(/C=N/NC(=O)c2cc(OC)c(OC)c(OC)c2)cc1OC : 1.44±0.04

* * *

Items are presented alongside their recorded SI Lymphocyte/ NCI-H358M.
Test system: NCI-H358M (pulmonary bronchio-alveolar carcinoma)
test_protocol: In vitro antiproliferative MTT assay, NCI-H358M
Format: cell-based
measurement_context: IC50 for human lymphocytes/IC50 for cancer cell line
Lab note: write the figure by itself, no unit.

In the examples that follow, each entry is paired with its recorded SI Lymphocyte/ NCI-H358M.
INSERT INTO results (chemical_structure, experimental_system, assay_result) VALUES
  ('COc1ccc(/C=N/NC(=O)c2cc(OC)c(OC)c(OC)c2)cc1OC', 'NCI-H358M (pulmonary bronchio-alveolar carcinoma)', 1.80),
  ('COc1cc(C(=O)N/N=C/c2ccc(O)cc2)cc(OC)c1OC', 'NCI-H358M (pulmonary bronchio-alveolar carcinoma)', 1.16),
  ('COc1cc(C(=O)N/N=C/c2ccc3c(c2)OCO3)cc(OC)c1OC', 'NCI-H358M (pulmonary bronchio-alveolar carcinoma)', 0.62);

SI Lymphocyte/ NCI-H358M recorded for this compound, COc1cc(C(=O)N/N=C/c2ccc(F)cc2)cc(OC)c1OC , is 1.76

Record COc1cc(C(=O)N/N=C/c2cccc(O)c2)cc(OC)c1OC , field SI Lymphocyte/ NCI-H358M: 0.48

According to the records, this compound COc1cc(C(=O)N/N=C/c2ccc(O)c(O)c2)cc(OC)c1OC displays SI Lymphocyte/ NCI-H358M of 0.30

For reference, reported SI Lymphocyte/ NCI-H358M for COc1cc(C(=O)N/N=C/c2ccc(Br)cc2)cc(OC)c1OC stands at 0.19

// sample COc1ccc(/C=C\c2cc(OC)c(OC)c(OC)c2)cc1O , its SI Lymphocyte/ NCI-H358M was 0.52

Notebook: COc1cc(C(=O)N/N=C/c2ccc(Cl)cc2)cc(OC)c1OC , SI Lymphocyte/ NCI-H358M read as 0.05

// COc1cc(C(=O)N/N=C/c2ccc(C)cc2)cc(OC)c1OC : SI Lymphocyte/ NCI-H358M value = 0.009

Item: COc1cc(C(=O)N/N=C/c2cc(C(C)(C)C)c(O)c(C(C)(C)C)c2)cc(OC)c1OC | SI Lymphocyte/ NCI-H358M: 1

SI Lymphocyte/ NCI-H358M for COc1cc(C(=O)N/N=C/c2ccccc2)cc(OC)c1OC is 4.05

SI Lymphocyte/ NCI-H358M reported for this compound COc1cc(C(=O)N/N=C/c2coc3ccccc3c2=O)cc(OC)c1OC : 1

get_value(item= COc1cc(/C=N/NC(=O)c2cc(OC)c(OC)c(OC)c2)cc(OC)c1OC , readout=SI Lymphocyte/ NCI-H358M) returns 1

Quick note, SI Lymphocyte/ NCI-H358M for COc1cc(C(=O)N/N=C/c2ccc(-c3ccccc3)cc2)cc(OC)c1OC landed at 1
